Some binders, each annotated with its measured Kd.
- testedTarget: T1, human CD45 D1-D4 (amino acids 194-578) with C-terminal 8xHis tag (human, UniProt P08575 194-578)
- T1 construct: Made in house in expi293 cells; SPR analyte; also called D1-D4 region of human CD45RO
- T1 sequence: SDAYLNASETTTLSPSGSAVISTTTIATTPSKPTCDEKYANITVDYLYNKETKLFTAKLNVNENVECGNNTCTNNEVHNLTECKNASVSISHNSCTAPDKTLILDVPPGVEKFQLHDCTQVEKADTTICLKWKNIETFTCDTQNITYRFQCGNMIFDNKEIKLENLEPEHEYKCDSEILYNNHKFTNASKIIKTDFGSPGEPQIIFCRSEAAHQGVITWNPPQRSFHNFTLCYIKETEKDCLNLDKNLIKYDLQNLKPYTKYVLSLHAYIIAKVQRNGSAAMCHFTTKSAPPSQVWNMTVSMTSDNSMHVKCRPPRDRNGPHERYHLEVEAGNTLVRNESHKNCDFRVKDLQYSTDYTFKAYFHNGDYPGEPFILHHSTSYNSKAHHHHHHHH
- protocolSummary: SPR, Biacore T200, single cycle kinetics; VHH monomeric Fc fusion captured on Protein A chip, CD45 D1-D4 as analyte
Write the number in nM without appending the unit.

For the binder 2G4 VHH monomeric Fc fusion (Fc fusion, Clonotype 2; Construct used for SPR; not shown: monomeric Fc tag) VHH: QVQLQEFGGGLVQAGGSLRLSCAASGSISRINAMGWYRQAPGKQRELVAVITSGGSTHYADSVKGRFTISRDNAKNTLYLQMNSLKPEDTAVYYCNGRRKTTGWGSLREWEGSRDPDEYNYWGQGTLVTVSS , what Kd is on record?
8.3

Okay, now this binder:
For the binder 1D6 VHH monomeric Fc fusion (Fc fusion, Clonotype 10; Construct used for SPR; not shown: monomeric Fc tag) VHH: QVQLQESGGGSVQAGGSLGLFCSASGTIFNIDVMGWYRQAPGKQRELVATITSDGRTNYADSVKGRFTISRDGAKNAVHVQMNSLKPEDTAVYYCKAYLSGRSDYWGQGTQVTVSS , what Kd is on record?
522
